Target: Cellular tumor antigen p53 (Homo sapiens)
Test: Primary qHTS for small molecule compounds that upregulate eGFP-tagged delta133p53alpha (in N-terminal) cells. (AID 2060322); further: potency means the concentration at half of the fitted maximal effect; nearly all actives have a fitted effect of over 75% in size
Conditions: NCI-H358 eGFP-delta133p53alpha fluorescence, 24 h
Inconclusive results are not listed. Activity calls are given as the source filed them. The call rests on the fitted dose curve; in most records, active means well fitted activation curve with a large enough effect; inconclusive means small, poorly fitted or top-dose-only effect; inactive means no such curve, though single readings can be large or run the other way.
Listed here are molecules together with their documented Potency.

>  <MOLECULE>
COc1cccc(-c2cn(-c3ccc(CCN4CCC(O)CC4)cc3)c3ncnc(N)c23)c1

>  <Potency>
6.01 µM (active)

$$$$
>  <MOLECULE>
CCN1CCN(Cc2ccc(Nc3ncc(F)c(-c4cc(F)c5nc(C)n(C(C)C)c5c4)n3)nc2)CC1

>  <Potency>
12 µM (active)

$$$$
>  <MOLECULE>
COCCOc1ccc2c(c1)ncn2-c1ccc2cccc(N3CCC(N)CC3)c2n1

>  <Potency>
16.9 µM (active)

$$$$
>  <MOLECULE>
C=C(C)[C@@H]1CC[C@]2(CO)CC[C@]3(C)[C@H](CC[C@@H]4[C@@]5(C)CC[C@H](O)C(C)(C)[C@@H]5CC[C@]43C)[C@@H]12

>  <Potency>
10.4 µM (active)

$$$$
>  <MOLECULE>
COc1cccc(OCCCN)c1-c1cc(Nc2cnc(C#N)cn2)n[nH]1

>  <Potency>
26.9 µM (active)

$$$$
>  <MOLECULE>
O=C(Nc1nc2cc(C(F)(F)F)cc(NC3CC3)n2n1)c1cccnc1

>  <Potency>
4.78 µM (active)

$$$$
>  <MOLECULE>
C=C1CC(=O)C2OC2(C)CC2OC(=O)C(=C)C2C(O)C1OC(=O)/C(C)=C\C (stereo not given)

>  <Potency>
16.6 µM (active)

$$$$
>  <MOLECULE>
Nc1ccccc1N

>  <Potency>
17.8 µM (active)

$$$$
>  <MOLECULE>
C[C@@]12C(=O)OC(=O)[C@@]1(C)C1CCC2O1

>  <Potency>
9.68 µM (active)

$$$$
>  <MOLECULE>
O=C1NC(=O)C(c2c[nH]c3ccccc23)=C1c1c[nH]c2ccccc12

>  <Potency>
27.3 µM (active)

$$$$
